For each of the compounds below, state its IC50.
biological target: Integrin αvβ6 Receptor (Homo sapiens, UniProt P06756+P18564); experiment: HTRF binding activity to integrin αvβ6 receptor (competition with LAP (TGF-beta 1)); conditions: Integrin αvβ6, HTRF; Table 3, several runs, each with Cilengitide and 1 as references; read-out: IC50
Sequence (P06756 31-992 limits assumed): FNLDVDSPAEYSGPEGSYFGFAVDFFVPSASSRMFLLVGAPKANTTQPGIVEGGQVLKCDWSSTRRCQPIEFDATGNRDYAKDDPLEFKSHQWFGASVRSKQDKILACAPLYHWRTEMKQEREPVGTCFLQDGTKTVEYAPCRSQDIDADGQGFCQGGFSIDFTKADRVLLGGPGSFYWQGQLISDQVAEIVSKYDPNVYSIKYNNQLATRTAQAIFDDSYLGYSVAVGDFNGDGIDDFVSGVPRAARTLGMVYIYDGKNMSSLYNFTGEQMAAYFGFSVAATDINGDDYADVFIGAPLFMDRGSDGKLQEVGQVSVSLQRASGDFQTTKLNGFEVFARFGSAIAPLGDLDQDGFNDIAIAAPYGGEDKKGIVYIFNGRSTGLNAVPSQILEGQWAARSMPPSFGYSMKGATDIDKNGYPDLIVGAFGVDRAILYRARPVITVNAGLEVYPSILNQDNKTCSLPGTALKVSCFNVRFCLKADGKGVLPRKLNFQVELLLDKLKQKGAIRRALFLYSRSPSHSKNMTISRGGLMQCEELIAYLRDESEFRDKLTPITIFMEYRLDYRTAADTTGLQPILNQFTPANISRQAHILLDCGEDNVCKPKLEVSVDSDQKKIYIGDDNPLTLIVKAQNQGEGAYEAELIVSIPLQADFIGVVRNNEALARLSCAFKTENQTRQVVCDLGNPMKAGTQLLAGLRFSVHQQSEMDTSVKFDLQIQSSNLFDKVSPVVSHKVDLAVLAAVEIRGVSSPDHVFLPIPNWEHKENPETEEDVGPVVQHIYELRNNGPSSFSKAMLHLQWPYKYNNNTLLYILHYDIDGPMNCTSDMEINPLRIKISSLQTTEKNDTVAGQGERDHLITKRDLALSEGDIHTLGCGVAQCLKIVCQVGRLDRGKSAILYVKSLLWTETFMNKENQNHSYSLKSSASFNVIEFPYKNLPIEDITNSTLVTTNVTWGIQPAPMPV
Sequence (P18564 22-707 limits assumed): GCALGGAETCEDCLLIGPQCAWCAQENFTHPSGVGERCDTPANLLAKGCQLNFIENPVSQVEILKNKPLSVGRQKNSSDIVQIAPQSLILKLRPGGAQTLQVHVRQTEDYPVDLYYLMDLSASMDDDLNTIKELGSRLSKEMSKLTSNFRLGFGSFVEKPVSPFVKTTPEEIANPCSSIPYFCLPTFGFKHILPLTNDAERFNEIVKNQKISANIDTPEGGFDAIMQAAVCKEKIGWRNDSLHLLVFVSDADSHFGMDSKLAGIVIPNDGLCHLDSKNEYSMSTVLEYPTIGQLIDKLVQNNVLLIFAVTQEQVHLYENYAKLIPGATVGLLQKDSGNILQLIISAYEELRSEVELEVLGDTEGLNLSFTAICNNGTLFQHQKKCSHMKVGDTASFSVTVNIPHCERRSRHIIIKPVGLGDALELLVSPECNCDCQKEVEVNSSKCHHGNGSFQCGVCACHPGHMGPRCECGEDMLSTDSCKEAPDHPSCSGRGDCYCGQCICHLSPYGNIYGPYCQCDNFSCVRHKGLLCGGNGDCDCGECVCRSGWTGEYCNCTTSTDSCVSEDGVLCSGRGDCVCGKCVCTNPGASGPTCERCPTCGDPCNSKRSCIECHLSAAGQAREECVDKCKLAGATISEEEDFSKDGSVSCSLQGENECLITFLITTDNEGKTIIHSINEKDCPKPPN
Express it in nM; write the number only.

-- ask Consider the compound [N-]=[N+]=NCCOCCOCCOCCOCCOc1cccc(C(CC(=O)O)CN2CCC(CCc3ccc4c(n3)NCCC4)C2)c1 (centres unmarked) [Compound 18-P2] and give its measured IC50.
-- reply 13.9

-- ask Consider the compound [N-]=[N+]=NCCOCCOCCOCCOCCOc1ccc(C(CC(=O)O)CN2CCC(CCc3ccc4c(n3)NCCC4)C2)cc1F (centres unmarked) [Compound 83] and give its measured IC50.
-- reply 3.7

-- ask Consider the compound [N-]=[N+]=NCCOCCOCCOCCOCCOc1cccc2c(-c3ccc(C(CC(=O)O)CN4CCC(CCc5ccc6c(n5)NCCC6)C4)cc3)cccc12 (centres unmarked) [Compound 71] and give its measured IC50.
-- reply 3

-- ask Consider the compound [N-]=[N+]=NCCOCCOCCOCCOCCOc1cc(-c2ccccc2)cc(C(CC(=O)O)CN2CCC(CCc3ccc4c(n3)NCCC4)C2)c1 (centres unmarked) [Compound 59] and give its measured IC50.
-- reply 2.9

-- ask Consider the compound [N-]=[N+]=NCCOCCOCCOCCOCCOc1cc(C(CC(=O)O)CN2CCC(CCc3ccc4c(n3)NCCC4)C2)ccc1F (centres unmarked) [Compound 86] and give its measured IC50.
-- reply 4.5

-- ask Consider the compound [N-]=[N+]=NCCOCCOCCOCCOCCOc1ccc(C(CC(=O)O)CN2CCC(CCc3ccc4c(n3)NCCC4)C2)cc1 (centres unmarked) [Compound 20-P2] and give its measured IC50.
-- reply 13.4

-- ask Consider the compound Cc1ccnc(NCCC2CCN(CC(=O)NC(CC(=O)O)c3ccc(-c4ccc(OCCOCCOCCOCCOCCN=[N+]=[N-])c5ccccc45)cc3)C2=O)c1 (single isomer, unassigned) [Compound 5-P1] and give its measured IC50.
-- reply 3.6

-- ask Consider the compound [N-]=[N+]=NCCOCCOCCOCCOCCOc1ccc(F)c(C(CC(=O)O)CN2CCC(CCc3ccc4c(n3)NCCC4)C2)c1 (centres unmarked) [Compound 53] and give its measured IC50.
-- reply 3.8
